Target: T1, RSV F subtype B, furin-cleaved ectodomain stabilized in the prefusion conformation (DS-Cav1) (Respiratory syncytial virus subtype B)
T1 construct: extracellular domain; Trimeric soluble antigen; also called Prefusion subtype B
Assay: BLI, IgG on AHQ sensor, 100 nM antigen
Measurement Name: Kd

See these solved cases before continuing.
Binder: ADI-18904 (antibody, V domains shown, full-length IgG from yeast; also called Antibody Number 259; Ab # 259) VH: EVQLVESGSEVKKPGAAVKVSCKASGYIFANFGVSWVRQAPGQGLEWMGWISAYNGNTNYAQKFQGRVIMTTDTSTSTAYMELRSLRSDDTAVYYCARDPPAYAATLMDVWGKGTTVTVSS VL: DIVMTQSPLSLPVTLGQSASISCRSSQSLEHSDTNTYLTWYQQRPGQSPRRLLYKVSNRDSGVPDRFSGSGSGTDFTLKISRVEAEDVGVYYCMQGTHWPPTFGQGTKLEIK
Kd: 0.237 nM
--
Binder: ADI-18970 (antibody, V domains shown, full-length IgG from yeast; also called Antibody Number 318; Ab # 318) VH: QVQLQESGPRLVKPSQTLSLTCTVSGGSISSGDYYWSWIRQPPGKGLEWIGYIYYSGSTHYNPSLKSRVSMSVDTAKNQFSLKLTSVTAADTAVYYCARDIGYGDHGTGSYYYGIEDWGQGTTVTVSS VL: DIVMTQTPATLSLSPGDRATLSCRASQNIMSYLAWYQHKPGQPPRLLIYDASYRAAGIPARFSGSGSGTDFTLTISSLEPEDFAVYYCQQRTNWITFGQGTRLEIK
Kd: 0.445 nM
--
Binder: ADI-18942 (antibody, V domains shown, full-length IgG from yeast; also called Antibody Number 295; Ab # 295) VH: QVQLQESGPGRVKPSQTLSLTCTVSGVSVTINDYYWTWLRQSPGKGLEWIGNIYNSGSTYQNPSLQSRVTMSVDTAKNHFSLKLTSVTAADTAVYYCARDLGTANNYYFGMDVWGLGTTVTVSS VL: EIVMTQSPATLSLSPGERATLSCRASQSVSTYLAWYQQKPGQAPRLLIYNGSNRVTGTPARFSGSGSGTDFTLTISSVEPEDFAVYYCQQRSNWPPYTFGQGTKVEIK
Kd: 0.512 nM
--
Binder: ADI-18939 (antibody, V domains shown, full-length IgG from yeast; also called Antibody Number 292; Ab # 292) VH: QVQLQQWGAGLLKPSETLSLTCAVYGGSFSGYSWSWIRQSPGKGLEWIGEINHRGSTNYNPSLKSRVTISVDTSKNQFSLKLSSVTAADTAVYYCAGTNYGEVNTSNQYFFGMDVWGQGTTVTVSS VL: DIRLTQSPSSLSASVGDRVTITCRASQSITTYLNWYQQKPGKAPKLLIYAASNLESGVPSSFSGSGFGTDFTLTISSLQPDDFATYYCQQSYSAPLTFGGGTKVDIK
Kd: 0.56 nM
--
Binder: ADI-18968 (antibody, V domains shown, full-length IgG from yeast) VH: EVQLVESGPGLVKPSQTLSLTCTVSDVLISSGDYYWSWIRQSPGKGLEWLGYIYYTGKTKYNPSLESRITMSVDTSKNQFSLRLSSVTAADTAVYFCTRDLGYSTSSPSFYYGMDVWGQGTTVTVSS VL: EIVLTQSPATLSLSPGERATLSCRASQSVGTYLAWYQQKPGQAPRLLIYDASYRVTGIPARFSASGSATDFTLTISSLEPEDFAVYFCQQRTNWPITFGQGTRLEIK
Kd: 0.602 nM
--
Binder: ADI-18912 (antibody, V domains shown, full-length IgG from yeast) VH: EVQLVESGGGLVKPGGALRLSCAASGFSFRSYSMNWVRQAPGKGLEWVSSISSSSNYINYADSVKGRFSISRDNAKNSLYLQMNSLRAEDTAVYYCARDLLPVERGPAFDIWGQGTMVTVSS VL: SYELTQPPSVSGAPGQRVTISCTGSSSNIGAGYDVHWFQQLPGAAPKLLIYANSNRPSGVPDRFSGSKSGTSASLAITGLQAEDEADYYCQSYDSRLGGSVFGGGTKVTVL
Kd: 0.286 nM
--
Binder: ADI-18882 (antibody, V domains shown, full-length IgG from yeast) VH: QVQLVQSGAEVKKPGSSVRVSCKASGGTFRGYGLSWVRQAPGQGLEWMGGITHLFGTVSYAPKFQGRLTITADASTGTAYMELSSLISEDTAVYFCARDAYEVWTGSYLPPFDYWGQGTMVTVSS VL: DIVMTQSPGTLSLSPGERVTLSCRASQIIPSSYLAWYQQKPGQAPRLLIYGAFTRATDIPDRFSGSGSGTDFTLTISRLEPEDFAVYYCQQYGSSFLTFGGGTKVEIK
Kd: 0.476 nM
--
Binder: ADI-18893 (antibody, V domains shown, full-length IgG from yeast; also called Antibody Number 248; Ab # 248) VH: EVQLLESGGGLVKPGGSLRLSCVASGFTFSSYNINWVRQAPGKGLEWVSSISGGSNYIDYADSVKGRFTISRDNAKNSLYLQMNNLRAEDTAVYYCARLGYGGNPELDYWGQGTLVTVSS VL: QSVLTQPPSVSGAPGQRVTISCTGSSSNIGAGYDVHWYQQRPGTAPKLLIYANNNRPSGVPDRFSGSKSGTSASLAITGLQAEDEADYYCQSYDLSLSSSRVFGGGTKLTVL
Kd: 0.278 nM
--
Binder: ADI-18928 (antibody, V domains shown, full-length IgG from yeast) VH: QVQLVQSGAEVKRPGSSVRVSCKASGGTFRKYAISWVRQARGQGLEWMGGIIPMSGPPSYAQKFQGRVTITADESTSTVYMELSSLRFEDTAVYFCARDIEWFVLMDPITSYYPMDVWGQGTTVTVSS VL: QSVVTQEPSLTVSPGGTVTLTCGSSTGGVTSGHHTYWFQQKPGQAPRTLIYDTTNTHSWTPARFAGSLLGGKAALTLSGAQPEDEADYYCLLSYSGARPVFGGGTKLTVL
Kd: 0.515 nM

// moving on: another record for Kd
Prompt: Sample ADI-18900 (antibody, V domains shown, full-length IgG from yeast) VH: EVQLLESGGALVEPGGSLRLSCAASGFSFNTYSMNWVRQGPGKGLEWVATISTSTAGSYYADSVRGRFTISRDNSKNTLYLQMNSLRVEDTAVYYCARDQEVELIDDAFDFWGRGTMVTVSS VL: DIVMTQTHSSLSASVGDRVTITCRASQSISIWVAWYQQKPGKAPNLLIYKASSLQSGVPSRFSGSGSGTEFTLTISSLQPDDSATYYCQQYYTYYSFGQGTKLEIK — what was its Kd?
Response: 0.331 nM
